Where do these numbers come from? They come from patent US20200399381A1.

- STUDY SYSTEM: T1, human IFNAR-1 protein (form not stated) (human, UniProt P17181 28-436, limits assumed)
- T1 construct: bispecific ELISA
- T1 sequence (looked up): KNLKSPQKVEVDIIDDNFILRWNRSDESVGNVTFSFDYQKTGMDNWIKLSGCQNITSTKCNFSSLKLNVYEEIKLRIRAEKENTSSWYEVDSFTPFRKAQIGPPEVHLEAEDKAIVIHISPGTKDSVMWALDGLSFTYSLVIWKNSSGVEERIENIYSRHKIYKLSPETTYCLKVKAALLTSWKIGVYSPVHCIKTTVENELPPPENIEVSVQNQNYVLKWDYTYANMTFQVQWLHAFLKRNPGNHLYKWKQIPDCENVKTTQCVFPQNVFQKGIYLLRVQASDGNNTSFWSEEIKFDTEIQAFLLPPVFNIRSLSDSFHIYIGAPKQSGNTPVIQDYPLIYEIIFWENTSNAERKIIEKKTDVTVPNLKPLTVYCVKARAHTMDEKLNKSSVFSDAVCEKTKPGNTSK
- ASSAY COMMENT: affinity ranking of expressed humanized 8G11 IgGs (method not named)
Entries and their kon values follow.
REPORTED PROPERTY: kon (M⁻¹ s⁻¹)

>  <BINDER>
8G11 humanized VH1 + VL4 (antibody, V domains shown, Humanized IgG expressed in HEK293; also called VH1 + VL4 (8G11)) VH: QVQLVQSGAEVKKPGASVKVSCKASGFNIKDYYMHWVRQAPGQGLEWMGRIDPEDAETKYAPKFQGRVTMTRDTSTSTVYMELSSLRSEDTAVYYCARGGNFYVMDYWGQGTLVTVSS VL: DIQMTQSPSFLSTSVGDRVTVTCKASQNVGTNVVWYQQKPGKSPKVLIYSASYRVSGVPSRFSGSGSGTEFTLIISSVQPEDFATYFCQQKNNYPYTFGQGTKLEIK

>  <REPORTED PROPERTY>
kon

>  <ASSAY RESULT>
169000

$$$$
>  <BINDER>
8G11 humanized VH3 + VL2 (antibody, V domains shown, Humanized IgG expressed in HEK293; also called VH3 + VL2 (8G11)) VH: QVQLVQSGAEVVKPGASVKVSCKGSGFNIKDYYMHWVKQAPGQGLEWIGRIDPEDAETKYAPKFQGRVTITADTSTSTVYLELSSLRSEDTAVYYCARGGNFYVMDYWGQGTLVTVSS VL: DIQLTQSPSFLSTSVGDRVTITCKASQNVGTNVVWYQQKPGKSPKVLIYSASYRVSGVPSRFSGSGSGTEFTLIISSLQPEDFATYYCQQKNNYPYTFGQGTKLEIK

>  <REPORTED PROPERTY>
kon

>  <ASSAY RESULT>
284000

$$$$
>  <BINDER>
8G11-H2L1 (antibody, V domains shown, Humanized IgG expressed in HEK293; also called VH2 + VL1 (8G11)) VH: QVQLVQSGAEVVKPGASVKVSCKGSGFNIKDYYMHWVRQAPGQGLEWIGRIDPEDAETKYAPKFQGRVTMTADTSTSTVYMELSSLRSEDTAVYYCARGGNFYVMDYWGQGTLVTVSS VL: DIQLTQSPSFLSASVGDRVTITCKASQNVGTNVVWYQQKPGKAPKLLIYSASYRVSGVPSRFSGSGSGTEFTLTISSLQPEDFATYYCQQKNNYPYTFGQGTKLEIK

>  <REPORTED PROPERTY>
kon

>  <ASSAY RESULT>
202000

$$$$
